experimentalDetails: physchem
cond: water
quantityName: solubility (µg/mL)
# value in µg/mL; strip the unit string

What value of solubility has been recorded for this entry: O=C(O)COc1ccc(Cl)cc1Cl [2,4D, 2,4-dichlorophenoxyacetic acid, reference compound]
740
